Values from PubChem BioAssay (NCI)

- Tested on: CCRF-CEM leukemia
- experimentalProtocol: NCI-60 one-dose screen, 48 h
- particulars: 10 µM unless noted
About 83,000 compounds went through this panel and 20% of them were active in at least one assay; those are over-represented in the sample as a whole. Active and inactive are the calls of the source. The calls were made as follows: active = growth percent below 10; inactive = the rest.
Your response should consist of one outcome taken from active, inactive

Field: outcome | Entry: "Cc1cc2nc3c4cc(Cl)ccc4n(CC(=O)NCCN(C)C)c3nc2cc1C" active

Field: outcome | Entry: "Nc1c(C(=O)Nc2ccc(C(F)(F)F)cc2)sc2nc(-c3cnccn3)cc(-c3cccs3)c12" inactive

Field: outcome | Entry: "O=C(CN1CCOCC1)NNc1ncnc2ccccc12" inactive

Field: outcome | Entry: "Fc1ccc(-c2cc3nc(C(Cl)Cl)nc(-c4ccc(Cl)cc4)n3n2)cc1" inactive

Field: outcome | Entry: "CCN(CC)c1ccc(C=O)c(OCc2cn(CC(=O)Nc3ccc(Cl)cc3)nn2)c1" inactive

Field: outcome | Entry: "Oc1c(Cl)cc(Cl)c2ccc(CN3CCCCC3)nc12" inactive

Field: outcome | Entry: "Cc1[nH]nc2ncc(C#Cc3cncc(C(=O)Nc4ccc(CN5CCN(C)CC5)c(C(F)(F)F)c4)c3)cc12" inactive

Field: outcome | Entry: "OC1CCN(CCCOc2c3ccc(Cl)cc3nc3c2oc2ccccc23)CC1" active

Field: outcome | Entry: "C#C[C@]1(O)CC[C@H]2[C@@H]3CC=C4c5sc(-c6ccc(F)cn6)nc5CC[C@]4(C)[C@H]3CC[C@@]21C" active

Field: outcome | Entry: "NC(=O)c1c(NC(=O)c2ccc(C3CCCCC3)cc2)sc2c1CCC(=O)C2" active

Field: outcome | Entry: "CC(=NNc1ncnc2ccccc12)c1ccc(S(C)(=O)=O)cc1" inactive

Field: outcome | Entry: Cc1cc(C(NC(=O)CCCCCNc2cccc3c2C(=O)N(C2CCC(=O)NC2=O)C3=O)c2cccnc2)c(O)c2ncccc12 (centres undefined) active

Field: outcome | Entry: "COc1cccc(-c2nn(-c3ccccc3)cc2-c2ccnc(N3CCN(C(=O)c4ccccc4)CC3)c2)c1" inactive

Field: outcome | Entry: "N#Cc1c(-c2ccc(F)cc2)nc2c(C#N)c(Nc3ccccc3)nn2c1N" inactive

Field: outcome | Entry: "CCC/C=C/C=C/C(=O)N[C@@H](Cc1cc(F)cc(F)c1)C(=O)N[C@@H]1C(=O)N2CCC[C@H]2C(=O)N2CCCC[C@H]2C(=O)N[C@@H](C)C(=O)N2C[C@H](C)C[C@H]2C(=O)O[C@H]1C" inactive

Field: outcome | Entry: "O=C(CSc1nccc(=O)[nH]1)Nc1ccc(-c2nc3ccccc3[nH]2)cc1" inactive

Field: outcome | Entry: "Cc1cccc(/C=C/c2nn3c(-c4ccco4)nnc3s2)c1" inactive

Field: outcome | Entry: N#Cc1nc(-c2ccccc2)oc1N1CCC(CO)C1 (centres undefined) inactive

Field: outcome | Entry: "CN(C)c1ccc(/C=C2\Cc3c(F)ccc(Br)c3C2=O)cc1" inactive
